Source of measurements: PubChem BioAssay AID2060325

system: SK-OV-3 multi-cell spheroids, viability; experiment: Anticancer human tumor SK-OV-3 cell line growth inhibition [IpAb]; conditions: second compound 0.1 µM; first compound 0.00316 µM; hits give low values;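 also: viability read after seven days of drug exposure; percent of DMSO vehicle control luminescence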
Recorded viability, T/C for the following compounds

Check out these entries, answers already filled in.
{"columns": ["Compound", "viability, T/C"],
 "data": [
  ["Cn1ncnc1[C@H]1c2n[nH]c(=O)c3cc(F)cc(c23)N[C@@H]1c1ccc(F)cc1 + CC(C)NCC(C(=O)N1CCN(c2ncnc3c2C(C)CC3O)CC1)c1ccc(Cl)cc1", "60.9%"],
  ["COc1c(OCCCN2CCOCC2)ccc2c3n(c(=NC(=O)c4cnc(N)nc4)nc12)CCN3 + CC(C)NCC(C(=O)N1CCN(c2ncnc3c2C(C)CC3O)CC1)c1ccc(Cl)cc1", "53.7%"],
  ["COc1c(OCCCN2CCOCC2)ccc2c3n(c(=NC(=O)c4cnc(N)nc4)nc12)CCN3 + CCN1CCN(Cc2ccc(Nc3ncc(F)c(-c4cc(F)c5nc(C)n(C(C)C)c5c4)n3)nc2)CC1", "43%"],
  ["CC(C)n1nc(-c2ccc3oc(N)nc3c2)c2c(N)ncnc21 + CCN1CCN(Cc2ccc(Nc3ncc(F)c(-c4cc(F)c5nc(C)n(C(C)C)c5c4)n3)nc2)CC1", "28.1%"],
  ["CC(C)n1nc(-c2ccc3oc(N)nc3c2)c2c(N)ncnc21 + CC(C)NCC(C(=O)N1CCN(c2ncnc3c2C(C)CC3O)CC1)c1ccc(Cl)cc1", "26.4%"]
]}

Now for another entry.
// query Recorded viability, T/C for Cn1ncnc1[C@H]1c2n[nH]c(=O)c3cc(F)cc(c23)N[C@@H]1c1ccc(F)cc1 + CCN1CCN(Cc2ccc(Nc3ncc(F)c(-c4cc(F)c5nc(C)n(C(C)C)c5c4)n3)nc2)CC1 , please?
// result 56.4%
